pEC50 reference
- target-or-system: hGPR120 (Homo sapiens)
- Construct: expressed in transfected cells; host or cells: CHO-K1
- Sequence (Q5NUL3 1-361): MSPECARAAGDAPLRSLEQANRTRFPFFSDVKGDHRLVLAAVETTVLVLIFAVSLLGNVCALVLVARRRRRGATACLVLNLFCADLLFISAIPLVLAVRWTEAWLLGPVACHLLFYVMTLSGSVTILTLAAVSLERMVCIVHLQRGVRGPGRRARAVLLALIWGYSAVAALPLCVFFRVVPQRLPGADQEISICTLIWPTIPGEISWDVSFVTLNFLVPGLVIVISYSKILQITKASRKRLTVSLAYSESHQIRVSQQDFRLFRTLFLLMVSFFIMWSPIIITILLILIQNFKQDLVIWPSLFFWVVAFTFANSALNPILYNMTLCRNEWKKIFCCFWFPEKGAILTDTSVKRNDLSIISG
- assay-procedure: Measurement of Activity of GPR120 Agonist (Cell-Based Assay), Calcium 5 dye fluorescence
- condition-notes: CHO-K1 cells expressing Ga16 and hGPR120
pEC50: −log10 of the molar value.
endpoint: pEC50

| compound | result |
| --- | --- |
| CC(C)Sc1ncccc1-c1ccc(C(C)(C)CCCC(=O)O)cc1 [Example 159] | > 6.70 |
| O=C(O)CC1CCN(c2c(F)cc(-c3ncc(F)c(OC4CCC4)n3)cc2F)C1 (stereo not drawn) [Example 592] | 5.70 to 6.70 |
| Oc1cc(COc2c(F)cc(-c3cccnc3OC3CCCC3)cc2F)on1 [Example 67] | > 6.70 |
| COc1cccc2ccn(-c3cc(F)c(OCCCC(=O)O)c(F)c3)c12 [Example 479] | > 6.70 |
| COc1ccc(-c2cc(F)c(C(C)CCCC(=O)O)c(F)c2)cc1OCC1CC1 (stereo not drawn) [Example 412] | > 6.70 |
| CC(C)Oc1cccc(-c2cc(F)c(OCc3cc(O)no3)c(F)c2)n1 [Example 71] | > 6.70 |
| O=C(O)CCC1CCc2cc(-c3cccnc3OC3CCC3)ccc2S1 (stereo not drawn) [Example 278] | > 6.70 |
| O=C(O)CCSCc1ccc(-c2cccnc2OC2CCCC2)cc1 [Example 293] | 5.70 to 6.70 |
| O=C(O)CC1CCN(c2c(F)cc(-c3cncc(NC4CCCC4)n3)cc2F)C1 (stereo not drawn) [Example 504] | 5.70 to 6.70 |
